- System: OVCAR-8
- assay: NCI tumour cell line growth inhibition, 48 h
The source made the active and inactive calls. Rule as the data show it: active = GI50 up to about 1.1 µM and inactive = higher.
Possible outcomes: 1.0 for active, 0.0 for inactive

INSERT INTO assay_data (compound, assigned_class) VALUES
  ('COc1cccc(C(=O)O)c1Cc1cccc2ccccc12', 0.0),
  ('O[C@@H]1C[C@@H]2N[C@@](O)(C[C@@H]2O)[C@H]1O', 0.0),
  ('O=S(=O)(O)c1cc(/N=[N+](\[O-])c2ccc(/N=N/c3ccccc3)cc2S(=O)(=O)O)ccc1/C=C/c1ccc(/N=[N+](\[O-])c2ccc(/N=N/c3ccccc3)cc2S(=O)(=O)O)cc1S(=O)(=O)O', 0.0),
  ('Cc1nc(-c2nc(C)c(C(=O)/C=C/c3ccc(N(C)C)cc3)s2)sc1C(=O)/C=C/c1ccc(N(C)C)cc1', 0.0),
  ('CCOc1ccccc1NC(=O)/C=C1\NC(=O)CS1', 0.0),
  ('O=C(O)/C=c1/c2ccccc2n2nc3ccccc3c12', 0.0),
  ('CC(C)(Oc1ccc(/C=C/C(=O)c2ccc(Cl)cc2)cc1)C(=O)Nc1c(Cl)cccc1Cl', 0.0),
  ('C#C[C@]1(O)CC[C@H]2[C@@H]3CCC4=C/C(=N/OC(=O)c5cccc6cc7ccccc7nc56)CC[C@@H]4[C@H]3CC[C@@]21CC', 0.0),
  ('O=C1C=CC2(C=C1)C[C@H](NC(=O)C(F)(F)F)C(=O)O2', 0.0),
  ('COc1cc(/C=N\O)cc(/C=N/O)c1O', 0.0),
  ('COC(=O)N1CCc2c(nc(N(C)CCO)[nH]c2=O)C1', 0.0),
  ('CC[C@@H](C(=O)[C@@H](C)[C@@H](O)[C@H](C)CCc1ccc(C)c(O)c1C(=O)O)[C@H]1O[C@](CC)([C@H]2CC[C@](O)(CC)[C@H](C)O2)C[C@@H]1C [LASALOCID A SODIUM]', 0.0),
  ('CN1C(=O)n2c(nc3ccccc32)C(N=[N+]=[N-])(N=[N+]=[N-])C1=O (stereo unspecified)', 0.0),
  ('O=[N+]([O-])c1ccc2c(c1)C1=C(CO2)Cc2ccccc2O1', 0.0),
  ('O=CCCCCCOCc1ccccc1', 0.0),
  ('O=c1[nH]nc(Cc2ccccc2)n1/N=C/c1ccc(/C=N/n2c(Cc3ccccc3)n[nH]c2=O)cc1', 0.0),
  ('O=C1NC(=O)C(C(c2ccc(Cl)cc2)C2C(=O)NC(=O)NC2=O)C(=O)N1.c1ccncc1', 0.0),
  ('CC(Br)C(=O)Nc1ccc(C(=O)O)c(O)c1 (stereo unspecified)', 0.0),
  ('CC(=NNC(=S)Nc1ccccc1)c1cccc(C(C)=NNC(=S)Nc2ccccc2)n1', 1.0),
  ('Nc1ccc(C(=O)NN2C(=O)C(Cl)C2c2ccc([N+](=O)[O-])cc2)cc1 (stereo unspecified)', 0.0),
  ('c1ccc(-c2nc3ccccc3n3c(CN4CCCCC4)nnc23)cc1', 0.0);

----------
Listing: GI50 of selected molecules
- System: UACC-257
- assay: NCI tumour cell line growth inhibition, 48 h
Calls of active or inactive are those of the source. Rule as the data show it: active = GI50 up to about 1.1 µM and inactive = higher.
reported_property: GI50

INSERT INTO assay_data (molecule, study_system, test_value) VALUES
  ('O=C(O)C1C(=O)Oc2c(cccc2[N+](=O)[O-])C1O (centres undefined)', 'UACC-257', '> 100 µM (inactive)'),
  ('CCOC(=O)C1=C(Nc2cccc3ccccc23)OCC1=O', 'UACC-257', '> 100 µM (inactive)'),
  ('O=S(=O)(O)c1cc(/N=[N+](\[O-])c2ccc(/N=N/c3ccccc3)cc2S(=O)(=O)O)ccc1/C=C/c1ccc(/N=[N+](\[O-])c2ccc(/N=N/c3ccccc3)cc2S(=O)(=O)O)cc1S(=O)(=O)O', 'UACC-257', '> 100 µM (inactive)'),
  ('COC(=O)Cc1nn2c(nc1=O)sc1ccc3ccccc3c12', 'UACC-257', '> 100 µM (inactive)'),
  ('COc1cc(Cl)c2c3c(c(C(C)=O)oc13)CCC2', 'UACC-257', '> 100 µM (inactive)'),
  ('COCCCNC(=O)C1C(=O)C(=O)N(CCCOC)C1=O (centres undefined)', 'UACC-257', '> 100 µM (inactive)'),
  ('COc1ccc(C2c3cc4c(cc3OC(O)(CO)C2C(=O)O)OCO4)cc1.COc1ccc(C2c3cc4c(cc3OC3(O)COC(=O)C23)OCO4)cc1 (centres undefined)', 'UACC-257', '21.5 µM (inactive)'),
  ('O=C1C=CC2(C=C1)C[C@H](NC(=O)C(F)(F)F)C(=O)O2', 'UACC-257', '34.8 µM (inactive)'),
  ('O=c1[nH]c(Br)nc2c(N3CCCCC3)c[nH]c12', 'UACC-257', '> 100 µM (inactive)');
